FYI, the data here is from ChEMBL document CHEMBL3621077.

Target: Protein deacetylase HDAC6 (Homo sapiens, UniProt Q9UBN7)
Sequence (Q9UBN7 whole entry): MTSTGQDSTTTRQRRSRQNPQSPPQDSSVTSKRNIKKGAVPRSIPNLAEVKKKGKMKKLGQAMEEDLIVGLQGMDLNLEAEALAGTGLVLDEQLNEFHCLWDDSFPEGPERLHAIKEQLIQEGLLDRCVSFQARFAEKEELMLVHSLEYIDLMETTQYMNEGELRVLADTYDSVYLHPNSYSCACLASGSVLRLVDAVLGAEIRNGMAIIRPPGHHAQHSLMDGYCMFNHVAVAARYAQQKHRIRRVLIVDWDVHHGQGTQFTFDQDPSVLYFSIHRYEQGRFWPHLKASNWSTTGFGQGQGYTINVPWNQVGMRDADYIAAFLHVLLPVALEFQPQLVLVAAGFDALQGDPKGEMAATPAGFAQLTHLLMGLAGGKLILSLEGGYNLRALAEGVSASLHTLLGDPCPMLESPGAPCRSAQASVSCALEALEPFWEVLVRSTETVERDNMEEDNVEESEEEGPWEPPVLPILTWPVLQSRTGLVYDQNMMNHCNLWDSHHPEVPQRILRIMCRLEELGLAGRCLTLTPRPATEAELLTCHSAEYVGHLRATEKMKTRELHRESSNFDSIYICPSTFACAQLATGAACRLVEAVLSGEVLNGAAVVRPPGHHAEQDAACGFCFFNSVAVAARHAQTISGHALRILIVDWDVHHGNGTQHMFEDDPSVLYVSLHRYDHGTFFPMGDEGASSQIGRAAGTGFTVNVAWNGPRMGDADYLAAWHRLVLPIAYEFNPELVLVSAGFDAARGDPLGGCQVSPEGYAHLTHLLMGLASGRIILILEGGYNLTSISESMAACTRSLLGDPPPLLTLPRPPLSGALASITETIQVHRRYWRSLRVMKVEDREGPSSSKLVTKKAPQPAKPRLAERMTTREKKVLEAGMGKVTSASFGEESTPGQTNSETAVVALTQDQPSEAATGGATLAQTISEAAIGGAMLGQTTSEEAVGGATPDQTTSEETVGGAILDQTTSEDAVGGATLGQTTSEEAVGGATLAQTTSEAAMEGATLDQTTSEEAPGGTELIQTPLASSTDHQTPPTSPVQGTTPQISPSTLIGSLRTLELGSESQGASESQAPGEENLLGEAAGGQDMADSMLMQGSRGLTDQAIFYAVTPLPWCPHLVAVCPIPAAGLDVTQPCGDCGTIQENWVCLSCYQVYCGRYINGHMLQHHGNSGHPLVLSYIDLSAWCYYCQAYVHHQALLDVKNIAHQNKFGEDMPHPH
Assay: Inhibition of HDAC6 (unknown origin)
Conditions: read-out: IC50
readoutName: IC50 (nM)
Give a bare numeral; the unit nM is implied.

Incoming: So what does the record say about IC50 for Nc1ccccc1NC(=O)CCCCCCC(=O)Nc1ccc2c(c1)/C(=C/c1ccc[nH]1)C(=O)N2 ?
Outgoing: 4610

Incoming: Bench note: what IC50 did O=C(CCCCC(=O)Nc1ccc2c(c1)/C(=C/c1ccc[nH]1)C(=O)N2)NO show?
Outgoing: 1.61

Incoming: IC50 lookup needed for O=C(CCCCCCC(=O)Nc1ccc2c(c1)/C(=C/c1ccc[nH]1)C(=O)N2)NO , thanks.
Outgoing: 0.323

###

readoutName: pIC50
Recall that pIC50 is obtained by taking minus log10 of the concentration measured in molar.

Incoming: Reported pIC50 for UniProtKB Q92769, given O=C(CCCCCCC(=O)Nc1ccc2c(c1)/C(=C/c1ccc[nH]1)C(=O)N2)NO ?
Outgoing: 8.95

###

Biological target: Histone deacetylase 8 (Homo sapiens, UniProt Q9BY41)
Sequence (Q9BY41 whole entry): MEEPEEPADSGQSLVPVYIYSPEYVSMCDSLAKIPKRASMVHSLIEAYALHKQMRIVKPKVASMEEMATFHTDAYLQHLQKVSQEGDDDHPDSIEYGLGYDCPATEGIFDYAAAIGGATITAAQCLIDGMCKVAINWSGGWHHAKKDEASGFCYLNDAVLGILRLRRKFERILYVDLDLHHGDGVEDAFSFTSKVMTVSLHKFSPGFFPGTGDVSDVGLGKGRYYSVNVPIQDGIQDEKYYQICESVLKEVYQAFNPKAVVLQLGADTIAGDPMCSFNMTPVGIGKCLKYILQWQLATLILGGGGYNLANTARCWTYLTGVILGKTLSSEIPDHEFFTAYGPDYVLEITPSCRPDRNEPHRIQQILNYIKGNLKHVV
Assay: Inhibition of HDAC8 (unknown origin)
Conditions: read-out: IC50
Would you kindly list IC50 for each of these molecules?
Supply the numeric figure in nM, leaving out any unit text.

Incoming: What value of IC50 has been reported for the following molecule? O=C(CCCCCCC(=O)Nc1ccc2c(c1)/C(=C/c1ccc[nH]1)C(=O)N2)NO
Outgoing: 60.2

Incoming: Fill in the blank: the reported IC50 of O=C(CCCCC(=O)Nc1ccc2c(c1)/C(=C/c1ccc[nH]1)C(=O)N2)NO is ____.
Outgoing: 312

###

In what follows, each item is paired with its pIC50 for Histone deacetylase 3 (Homo sapiens, UniProt O15379).
Would you please state pIC50, meaning minus log10 of the concentration in mol/L, as a bare number?

Incoming: So what's the measured pIC50 for this one? O=C(CCCCCCC(=O)Nc1ccc2c(c1)/C(=C/c1ccc[nH]1)C(=O)N2)NO
Outgoing: 9.17

Incoming: Any idea what pIC50 was measured for O=C(CCCCC(=O)Nc1ccc2c(c1)/C(=C/c1ccc[nH]1)C(=O)N2)NO ?
Outgoing: 8.01

Incoming: Field request: pIC50 | item: Nc1ccccc1NC(=O)CCCCCCC(=O)Nc1ccc2c(c1)/C(=C/c1ccc[nH]1)C(=O)N2
Outgoing: 6.40

###

Molecular target: UniProt:P35968
Sequence (P35968 whole entry): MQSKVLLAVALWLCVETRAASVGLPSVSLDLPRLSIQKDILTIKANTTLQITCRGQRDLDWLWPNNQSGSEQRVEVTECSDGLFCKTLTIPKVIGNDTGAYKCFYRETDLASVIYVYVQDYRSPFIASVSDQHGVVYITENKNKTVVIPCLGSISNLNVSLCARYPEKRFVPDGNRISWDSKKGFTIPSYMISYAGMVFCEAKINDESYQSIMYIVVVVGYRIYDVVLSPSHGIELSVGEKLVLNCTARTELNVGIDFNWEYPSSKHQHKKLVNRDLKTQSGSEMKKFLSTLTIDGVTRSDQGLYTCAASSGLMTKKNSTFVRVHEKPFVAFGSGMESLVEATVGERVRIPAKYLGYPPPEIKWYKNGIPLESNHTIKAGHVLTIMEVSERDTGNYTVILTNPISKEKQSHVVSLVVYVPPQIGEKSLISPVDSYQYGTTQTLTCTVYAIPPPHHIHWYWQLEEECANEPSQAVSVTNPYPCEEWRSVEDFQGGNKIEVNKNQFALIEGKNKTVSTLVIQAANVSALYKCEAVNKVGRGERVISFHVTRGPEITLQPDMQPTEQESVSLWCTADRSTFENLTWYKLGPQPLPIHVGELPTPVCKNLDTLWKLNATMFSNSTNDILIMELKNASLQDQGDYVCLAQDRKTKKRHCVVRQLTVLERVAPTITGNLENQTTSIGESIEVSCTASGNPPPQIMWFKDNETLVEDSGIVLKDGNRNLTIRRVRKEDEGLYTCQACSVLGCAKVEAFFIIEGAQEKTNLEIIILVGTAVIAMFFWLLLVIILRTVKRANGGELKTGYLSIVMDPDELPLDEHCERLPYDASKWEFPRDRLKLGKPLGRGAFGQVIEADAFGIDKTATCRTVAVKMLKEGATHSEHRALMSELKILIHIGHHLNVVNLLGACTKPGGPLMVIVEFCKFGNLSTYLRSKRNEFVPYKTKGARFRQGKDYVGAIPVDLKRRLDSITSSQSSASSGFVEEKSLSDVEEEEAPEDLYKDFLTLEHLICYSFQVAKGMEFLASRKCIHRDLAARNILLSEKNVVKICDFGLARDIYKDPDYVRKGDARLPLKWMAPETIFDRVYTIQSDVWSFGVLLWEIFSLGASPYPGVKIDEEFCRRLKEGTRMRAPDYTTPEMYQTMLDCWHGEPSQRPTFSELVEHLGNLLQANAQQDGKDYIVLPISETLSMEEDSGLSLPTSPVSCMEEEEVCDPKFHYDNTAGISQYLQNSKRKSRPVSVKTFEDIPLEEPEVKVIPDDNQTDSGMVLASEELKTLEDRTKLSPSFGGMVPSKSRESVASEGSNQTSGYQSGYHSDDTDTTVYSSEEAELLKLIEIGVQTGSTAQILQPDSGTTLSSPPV
Assay: Inhibition of VEGFR2 (unknown origin)
Settings: read-out: IC50
readoutName: IC50 (nM)
Provide only the numeric value, understood in nM.

Incoming: API: value(readout=IC50, system=UniProt:P35968) for record O=C(CCCCCCC(=O)Nc1ccc2c(c1)/C(=C/c1ccc[nH]1)C(=O)N2)NO
Outgoing: 237

Incoming: Query IC50 on UniProt:P35968 for O=C1Nc2ccc(O)cc2/C1=C/c1ccc[nH]1
Outgoing: 405

Incoming: Look up IC50 with UniProt:P35968 for this molecule: O=C(CCCCC(=O)Nc1ccc2c(c1)/C(=C/c1ccc[nH]1)C(=O)N2)NO
Outgoing: 290

Incoming: # get_value(readout= IC50, system= UniProt:P35968) for CSCCCNC(=O)c1ccc2c(c1)/C(=C/c1[nH]c(C)cc1C)C(=O)N2
Outgoing: 38

###

Biological target: Histone deacetylase 5 (Homo sapiens, UniProt Q9UQL6)
Sequence (Q9UQL6 whole entry): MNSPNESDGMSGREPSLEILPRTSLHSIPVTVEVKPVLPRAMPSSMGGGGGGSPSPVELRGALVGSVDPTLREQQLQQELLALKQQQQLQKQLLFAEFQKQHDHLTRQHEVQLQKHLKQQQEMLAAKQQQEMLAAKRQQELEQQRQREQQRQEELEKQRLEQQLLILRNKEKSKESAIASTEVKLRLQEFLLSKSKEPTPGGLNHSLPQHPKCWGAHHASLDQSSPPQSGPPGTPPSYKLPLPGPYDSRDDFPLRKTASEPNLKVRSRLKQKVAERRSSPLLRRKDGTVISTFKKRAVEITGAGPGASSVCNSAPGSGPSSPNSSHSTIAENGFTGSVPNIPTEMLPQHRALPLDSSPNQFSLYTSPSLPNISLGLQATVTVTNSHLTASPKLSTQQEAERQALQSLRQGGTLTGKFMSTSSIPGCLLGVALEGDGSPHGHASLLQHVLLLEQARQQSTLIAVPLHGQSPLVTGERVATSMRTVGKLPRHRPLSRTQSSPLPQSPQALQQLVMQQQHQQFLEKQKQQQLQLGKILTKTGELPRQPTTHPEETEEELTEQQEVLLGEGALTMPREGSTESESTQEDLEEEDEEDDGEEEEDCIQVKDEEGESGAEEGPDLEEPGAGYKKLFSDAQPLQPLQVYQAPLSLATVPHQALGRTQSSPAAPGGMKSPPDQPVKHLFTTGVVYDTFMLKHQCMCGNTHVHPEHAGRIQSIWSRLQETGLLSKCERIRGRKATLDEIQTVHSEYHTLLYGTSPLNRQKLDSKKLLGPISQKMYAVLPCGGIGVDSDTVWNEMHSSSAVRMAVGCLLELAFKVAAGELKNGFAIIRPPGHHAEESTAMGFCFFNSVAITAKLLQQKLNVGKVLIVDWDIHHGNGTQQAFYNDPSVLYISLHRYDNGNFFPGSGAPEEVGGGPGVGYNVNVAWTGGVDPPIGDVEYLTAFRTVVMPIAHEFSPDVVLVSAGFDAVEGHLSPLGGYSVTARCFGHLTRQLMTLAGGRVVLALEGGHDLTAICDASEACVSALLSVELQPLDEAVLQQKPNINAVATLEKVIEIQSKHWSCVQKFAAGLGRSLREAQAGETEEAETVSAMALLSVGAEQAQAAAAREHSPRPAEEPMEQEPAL
Assay: Inhibition of HDAC5 (unknown origin)
Conditions: read-out: IC50
readoutName: pIC50
The value called pIC50 is obtained by taking minus log10 of the concentration in mol/L.

Incoming: Any idea what pIC50 was measured for O=C(CCCCCCC(=O)Nc1ccc2c(c1)/C(=C/c1ccc[nH]1)C(=O)N2)NO ?
Outgoing: 6.07
